Please provide measured Controls, Relevant Pool for the entries that follow.
- Tested on: PBMCs from Phl p reactive donors
- measurementNotes: Cross-reactivity: IL-5 ELISPOT of PBMCs expanded 14 days with individual peptides, response to pollen extracts
- Format: cell-based, human
- measurementContext: control: response to relevant pool of cells expanded with the peptide
Answers are plain numbers.

Please review the following examples before continuing.
NVFDEVIPTAFTVGK; 100
IGSFFYFPSIGMQRT; 63
AVMLTFDNAGMWNVR; 100
LAKYKANWIEIMRIK; 31

Provide each entry's Controls, Relevant Pool from the list below.
1. EEWEPLTKKGNVWEV
2. FKAAVAAAAGAPPAD
3. NLALSIKYNKEGDSM
4. GSDEKNLALSIKYNK

Response:
1: 100; 2: 100; 3: 100; 4: 87

----------
- Tested on: PBMCs from Phl p reactive donors
- measurementNotes: Cross-reactivity: IL-5 ELISPOT of PBMCs expanded 14 days with individual peptides, response to pollen extracts
- Format: cell-based, human
- measurementContext: Amb p (weed) pollen extract; reactivity of extract as percentage of reactivity to the peptide; PBMCs expanded 14 days with the peptide
So basically, if Amb p % Reactivity comes in under 20% it's Yes, and if it's 20% or more it's No.

A selection of reference data follows.
GSDEKNLALSIKYNK; Yes
FKAAVAAAAGAPPAD; Yes
AVMLTFDNAGMWNVR; Yes
IGSFFYFPSIGMQRT; Yes
QYAKEIWGITANPVP; No

Query: hey, is Amb p % Reactivity for DIYNYMEPYVSKVDP lower than 20% or not?
Response: No

Query: And the next one, NLALSIKYNKEGDSM ?
Response: No

Query: Then EEWEPLTKKGNVWEV ?
Response: No

Query: Repeat with NPMTVFWSKMAQSMT
Response: Yes

----------
- Test system: cultured PBMCs of the allergic donors
- measurementNotes: ELISPOT of IL-5 or IFNg production by cultured PBMCs of TG allergic donors in response to peptide
- Format: cell-based, human
- measurementContext: Table 6; PP peptides recognized by T cells of grass allergic donors (n=20)
testReadout: No of PP & Th+ peptides per NTGA
Numbers only.

# map each substance to its No of PP & Th+ peptides per NTGA
1. 50 (NPLIFDNSYFTELLT) [compound 50]
2. 48 (ILSYADFYQLAGVVA) [compound 48]
3. 18 (ENRSVLHVALRAPRD) [compound 18]

Response:
[0, 0, 0]

----------
- Tested on: cultured PBMCs of the allergic donors
- measurementNotes: ELISPOT of IL-5 or IFNg production by cultured PBMCs of TG allergic donors in response to peptide
- Type: cell-based, human
- measurementContext: Table 6; PG+ peptides recognized by T cells of grass allergic donors (n=20)
testReadout: No of PG+ & th+ peptides per NTGA
Give bare numbers.

Some solved entries appear below for comparison.
40 (GIWAVLAWLSIIAYK) [compound 40]; 2
57 (LKIVEKYANSSIDIH) [compound 57]; 0
55 (LNKKYGSNVPLLLMN) [compound 55]; 0

For every item below, please supply its No of PG+ & th+ peptides per NTGA.
1. 84 (KSLVRAFMWDSGSTV) [compound 84]
2. 16 (QTELDNFMVHQLDGT) [compound 16]
3. 79 (WYEHRLIDDMVAYAL) [compound 79]
4. 83 (LNTEEFIDAVAAELQ) [compound 83]

Response:
4
2
1
11

Origin of the recorded values: patent US20160287696A1
